Measured values drawn from PubChem BioAssay AID2060620 for this set.

This section presents compounds with their documented viability, T/C values.
test system: 328373-195-R-J1-PDC complex spheroids, viability % test/control; experiment: Anticancer human tumor 328373-195-R-J1-PDC patient-derived head and neck squamous carcinoma cell line growth inhibition [CLK]; conditions: second compound 0.1 µM; first compound 0.1 µM; stronger effect = lower value

- compound: "COc1ccc([C@@H](O)c2cc(-c3ncnc4cc(N5CCOCC5)ccc34)c(F)cc2Cl)nn1 + CNC(=O)c1ccc(Nc2nc(OC3CCCC3)c3c(-c4ccc5nc(C)oc5c4)c[nH]c3n2)c(OC)c1"
  units.symbol: "%"
  viability, T/C: 8.48
- compound: "O=c1[nH]cc(F)c(=O)[nH]1 + CNC(=O)c1ccc(Nc2nc(OC3CCCC3)c3c(-c4ccc5nc(C)oc5c4)c[nH]c3n2)c(OC)c1"
  units.symbol: "%"
  viability, T/C: 5.34
- compound: "COC1C=CCC(C)C(C)S(=O)(=O)NC(=O)c2ccc3c(c2)N(CC2CCC21)CC1(CCCc2cc(Cl)ccc21)CO3 (stereo not given) + CNC(=O)c1ccc(Nc2nc(OC3CCCC3)c3c(-c4ccc5nc(C)oc5c4)c[nH]c3n2)c(OC)c1"
  units.symbol: "%"
  viability, T/C: 13.1
- compound: "Nc1ccccc1NC(=O)c1ccc(CNC(=O)OCc2cccnc2)cc1 + CN1CCN(c2cc(C(=O)Nc3cc4cc(-c5cnn(C)c5)ccc4cn3)ccn2)CC1"
  units.symbol: "%"
  viability, T/C: 80
- compound: "CCc1c2c(nc3ccc(O)cc13)-c1cc3c(c(=O)n1C2)COC(=O)[C@]3(O)CC + CNC(=O)c1ccc(Nc2nc(OC3CCCC3)c3c(-c4ccc5nc(C)oc5c4)c[nH]c3n2)c(OC)c1"
  units.symbol: "%"
  viability, T/C: 0.41
- compound: "COc1ccc([C@@H](O)c2cc(-c3ncnc4cc(N5CCOCC5)ccc34)c(F)cc2Cl)nn1 + CN1CCN(c2cc(C(=O)Nc3cc4cc(-c5cnn(C)c5)ccc4cn3)ccn2)CC1"
  units.symbol: "%"
  viability, T/C: 87.5
- compound: "COc1cccc2c1C(=O)c1c(O)c3c(c(O)c1C2=O)CC(O)(C(=O)CO)CC3OC1CC(N)C(O)C(C)O1 (stereo not given) + CN1CCN(c2cc(C(=O)Nc3cc4cc(-c5cnn(C)c5)ccc4cn3)ccn2)CC1"
  units.symbol: "%"
  viability, T/C: 5.57
- compound: "CC(CO)NC(=O)c1cc(-c2ccc(Cl)cc2)nn(-c2cnn(C)c2)c1=O (stereo not given) + CNC(=O)c1ccc(Nc2nc(OC3CCCC3)c3c(-c4ccc5nc(C)oc5c4)c[nH]c3n2)c(OC)c1"
  units.symbol: "%"
  viability, T/C: 12.2
- compound: "Nc1ccn(C2OC(CO)C(O)C2(F)F)c(=O)n1 (stereo not given) + CNC(=O)c1ccc(Nc2nc(OC3CCCC3)c3c(-c4ccc5nc(C)oc5c4)c[nH]c3n2)c(OC)c1"
  units.symbol: "%"
  viability, T/C: 1.85
- compound: "CC(Nc1ccc2c(c1)OCCn1cc(N3C(=O)OCC3C(F)F)nc1-2)C(N)=O (stereo not given) + CN1CCN(c2cc(C(=O)Nc3cc4cc(-c5cnn(C)c5)ccc4cn3)ccn2)CC1"
  units.symbol: "%"
  viability, T/C: 74.3

---

Tested on: 328373-195-R-J1-PDC complex spheroids, viability % test/control
Assay: Anticancer human tumor 328373-195-R-J1-PDC cell line growth inhibition [CLK];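 also: spheroids exposed to the agents for 7 days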
Conditions: second compound 1 µM; first compound 0.00316 µM; stronger effect = lower value
From the text: A high-throughput screen of multi-cell type tumor spheroids was designed to identify active combinations of […] and targeted small molecules. Complex spheroids include a stromal component modeled by human endothelial cells (HUVEC) and fibroblasts modeled by human mesenchymal stem cells (MSCs). […] Compounds. […] If the clinical Cmax for an agent had not been determined, the highest concentration tested was 10 microM. […]
Please assign false whenever viability, T/C is at or above 2%, and true whenever it is below.

- compound: "CCN1CCN(Cc2ccc(Nc3ncc(F)c(-c4cc(F)c5nc(C)n(C(C)C)c5c4)n3)nc2)CC1 + CN1CCN(c2cc(C(=O)Nc3cc4cc(-c5cnn(C)c5)ccc4cn3)ccn2)CC1"
  subject.of.test: "328373-195-R-J1-PDC complex spheroids, viability % test/control"
  category: "true"
- compound: "CCc1c2c(nc3ccc(O)cc13)-c1cc3c(c(=O)n1C2)COC(=O)[C@]3(O)CC + CN1CCN(c2cc(C(=O)Nc3cc4cc(-c5cnn(C)c5)ccc4cn3)ccn2)CC1"
  subject.of.test: "328373-195-R-J1-PDC complex spheroids, viability % test/control"
  category: "true"
- compound: "COc1c(OCCCN2CCOCC2)ccc2c3n(c(=NC(=O)c4cnc(N)nc4)nc12)CCN3 + CNC(=O)c1ccc(Nc2nc(OC3CCCC3)c3c(-c4ccc5nc(C)oc5c4)c[nH]c3n2)c(OC)c1"
  subject.of.test: "328373-195-R-J1-PDC complex spheroids, viability % test/control"
  category: "false"
- compound: "Cn1ncnc1[C@H]1c2n[nH]c(=O)c3cc(F)cc(c23)N[C@@H]1c1ccc(F)cc1 + CN1CCN(c2cc(C(=O)Nc3cc4cc(-c5cnn(C)c5)ccc4cn3)ccn2)CC1"
  subject.of.test: "328373-195-R-J1-PDC complex spheroids, viability % test/control"
  category: "false"
- compound: "CCN1CCN(Cc2ccc(Nc3ncc(F)c(-c4cc(F)c5nc(C)n(C(C)C)c5c4)n3)nc2)CC1 + CNC(=O)c1ccc(Nc2nc(OC3CCCC3)c3c(-c4ccc5nc(C)oc5c4)c[nH]c3n2)c(OC)c1"
  subject.of.test: "328373-195-R-J1-PDC complex spheroids, viability % test/control"
  category: "false"
